The origin of these recorded values is paper PMC6044753.

# SYSTEM: kynurenine 3-monooxygenase (KMO) (Homo sapiens, UniProt O15229)
# Sequence (O15229 whole entry): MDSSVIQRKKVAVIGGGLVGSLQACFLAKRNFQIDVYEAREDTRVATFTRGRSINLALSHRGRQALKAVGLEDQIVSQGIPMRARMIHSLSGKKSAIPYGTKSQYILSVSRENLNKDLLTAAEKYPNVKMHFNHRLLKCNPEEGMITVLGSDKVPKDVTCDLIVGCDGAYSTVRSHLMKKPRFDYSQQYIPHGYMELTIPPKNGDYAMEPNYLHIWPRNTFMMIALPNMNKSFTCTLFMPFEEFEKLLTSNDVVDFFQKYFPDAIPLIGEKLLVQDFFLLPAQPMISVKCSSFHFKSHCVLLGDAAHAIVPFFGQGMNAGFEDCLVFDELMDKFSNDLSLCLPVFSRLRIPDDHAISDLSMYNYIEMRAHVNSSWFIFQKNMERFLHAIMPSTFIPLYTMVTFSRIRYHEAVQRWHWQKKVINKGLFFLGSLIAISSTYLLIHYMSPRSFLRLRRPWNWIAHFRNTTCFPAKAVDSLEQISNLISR
# EXPERIMENT_DESCRIPTION: microdialysis (rapid equilibrium dialysis) with LC-MS on enriched HEK-KMO lysate; supported by cell lysate enzymatic inhibition, IC50 […]
QUANTITY_MEASURED: Kd

> print(dat)
                  molecule.smiles      val
1  O=C(O)Cc1ccccc1Nc1c(Cl)cccc1Cl  64.8 µM
